target: human BCL2 (residues 1–218) (Homo sapiens, UniProt P10415); assay: Isothermal titration calorimetry of BECN1 BH3D-derived peptides binding to BCL2; details: ITC, 25°C, pH 7.5
Sequence (P10415 1-218): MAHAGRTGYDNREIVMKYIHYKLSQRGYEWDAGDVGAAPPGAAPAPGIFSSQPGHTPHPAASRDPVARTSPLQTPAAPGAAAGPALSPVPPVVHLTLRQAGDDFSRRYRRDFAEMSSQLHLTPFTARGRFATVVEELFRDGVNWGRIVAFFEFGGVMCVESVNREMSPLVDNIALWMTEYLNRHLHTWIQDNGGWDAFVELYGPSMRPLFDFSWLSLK

Substance | Binding to BCL2 (in words)
F123A: BECN1 BH3D-derived peptide with Ala substitution of F123 (DGGTMENLSRRLKVTGDLADIMSGQT) [Mutant F123A] | abolished
L116A: BECN1 BH3D-derived peptide with Ala substitution of L116 (DGGTMENLSRRAKVTGDLFDIMSGQT) [Mutant L116A] | abolished
G120E+D121A: BECN1 BH3D-derived peptide with double G120E+D121A substitution (DS) (DGGTMENLSRRLKVTEALFDIMSGQT) | abolished
L112A: BECN1 BH3D-derived peptide with Ala substitution of L112 (DGGTMENASRRLKVTGDLFDIMSGQT) [Mutant L112A] | abolished
